Where do the numbers come from? From paper PMC10716145.

# Target System: T1, ZNF524 ZF1-3 (ZF4 removed) (human, UniProt Q96C55 110-196)
# T1 sequence: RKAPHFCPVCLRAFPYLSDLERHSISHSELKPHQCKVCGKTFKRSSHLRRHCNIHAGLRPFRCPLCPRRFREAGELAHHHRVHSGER
# Assay Text: ITC; ITC: 20 mM Tris-HCl pH 7.5, 150 mM NaCl, 20 C; pull-down: 50 mM Tris-HCl pH 7.5, 150 mM NaCl, 0.5% IGEPAL, 5 mM MgCl2, 1 mM DTT, salmon sperm DNA, 4 C
# Measurement Setup: protein: recombinant; tags: none (GST removed by TEV); blunt
Test Readout: pKd
The meaning of pKd here: minus log10 of the concentration in molar units.

I am curious: what pKd value has been reported for TTAGGG 12-bp duplex (dsDNA) DNA 1: GGTTAGGGTTAG DNA 2: CTAACCCTAACC ?
6.23
